Hi there, I'd appreciate the recorded Proxy for plastic degradation for every entry that follows.
Substrate: PET
assay_procedure: Proxy for plastic degradation [Released monomer concentration (HPLC/LC-MS) (MHET+TPA)]
applied_conditions: pH 9; 30 °C; part of the chain shown
Answers are plain numbers, in µM.

# count of solved cases: 3
chain	unit	reported_result
DEIGQAPTAANITGDGSFSTSSSAIFGQSGFGGGTAYYPNTAGKYPVVAF	µM	65.5
TPEFKPQPGPLSIKSAAAISFRVEDQAKDLQIRVTYPDGPGPWP	µM	15.7
ESETTAAAVSSRYYEETGPHAVTVEQGGPDHTLYYPSDLGAGGT	µM	13.9

Continue with the sequence presented below.
I have this sequence here, QDNSDGRYRPEGRTFARGAANLFDDRLFEARTYVTGTDVA , and I need its recorded Proxy for plastic degradation.
15.4
